# tgt: Amyloid-beta precursor protein (Homo sapiens, UniProt P05067)
# Sequence (P05067 whole entry, the tested form may be a part): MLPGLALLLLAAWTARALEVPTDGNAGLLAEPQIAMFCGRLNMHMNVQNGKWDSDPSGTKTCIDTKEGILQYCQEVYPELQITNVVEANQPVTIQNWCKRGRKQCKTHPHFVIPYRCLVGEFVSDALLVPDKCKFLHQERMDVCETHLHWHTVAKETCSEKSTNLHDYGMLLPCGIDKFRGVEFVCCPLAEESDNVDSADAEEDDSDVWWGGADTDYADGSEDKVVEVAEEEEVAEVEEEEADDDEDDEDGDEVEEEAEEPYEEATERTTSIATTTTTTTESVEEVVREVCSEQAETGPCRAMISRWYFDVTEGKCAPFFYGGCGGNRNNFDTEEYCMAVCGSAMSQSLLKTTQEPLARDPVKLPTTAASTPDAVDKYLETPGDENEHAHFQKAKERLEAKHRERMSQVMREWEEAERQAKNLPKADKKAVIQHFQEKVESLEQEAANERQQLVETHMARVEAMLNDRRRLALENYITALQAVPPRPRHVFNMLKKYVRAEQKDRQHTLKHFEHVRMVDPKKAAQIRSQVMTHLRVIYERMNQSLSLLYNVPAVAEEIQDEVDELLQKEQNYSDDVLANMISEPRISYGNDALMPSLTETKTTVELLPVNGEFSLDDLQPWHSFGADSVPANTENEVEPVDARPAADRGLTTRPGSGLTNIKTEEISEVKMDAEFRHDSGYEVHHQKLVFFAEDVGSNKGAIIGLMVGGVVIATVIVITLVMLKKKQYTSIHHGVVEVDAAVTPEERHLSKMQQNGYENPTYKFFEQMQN
# method.summary: Inhibition of amyloid beta (1 to 40 residues) (unknown origin) aggregation at 25 uM incubated for 72 hrs by Thioflavin T assay
Outcome: yes for inhibition of at least 50%; no for anything lower.

Threshold query (inhibition >= 50%) on CC1=NN(c2ccc(-n3c(-c4ccccc4)cc4ccccc43)cc2)C(=O)C1
yes

Exam item: decide whether the reported inhibition for CC1=NN(c2ccc(-n3cccc3)cc2)C(=O)C1 is at least 50%.
yes

Textbook exercise: given the entry COc1cc(F)cc(N2N=C(C)CC2=O)c1 , state whether its inhibition is greater than or equal to 50%.
no

Does inhibition meet or surpass 50% for CC1=NN(c2cccc(C)c2)C(=O)C1 ?
no

Determine whether measured inhibition meets or exceeds 50% for CC1=NN(c2cc(F)ccc2C)C(=O)C1
no

Would you say CC1=NN(c2ccc(-c3ccccc3)cc2)C(=O)C1 shows inhibition at minimum 50%?
yes

Is it the case that CC1=NN(c2ccccc2)C(=O)C1 has inhibition reaching or exceeding 50%?
no

Please tell me: is the molecule CC1=NN(c2ccc(-c3cccnc3)cc2)C(=O)C1 at or over 50% in terms of inhibition?
yes

====

# tgt: Amyloid-beta precursor protein (Homo sapiens, UniProt P05067)
# method.summary: Inhibition of amyloid beta (1 to 40 residues) (unknown origin) aggregation at 25 uM incubated for 72 hrs by Thioflavin T assay
Please respond with reported inhibition for every item in the list.
Kindly report the value followed by its unit.

Checklist item: inhibition tested on Amyloid-beta precursor protein (Homo sapiens, UniProt P05067), entry COc1cc(N2N=C(C)CC2=O)nc(OC)n1 , value?
48.2%

inhibition of CC1=NN(c2cccnc2)C(=O)C1 on Amyloid-beta precursor protein (Homo sapiens, UniProt P05067)?
20.2%

Requested read-out inhibition, target or system Amyloid-beta precursor protein (Homo sapiens, UniProt P05067), entry CC1=NN(c2ccc(C(F)(F)F)cc2)C(=O)C1
56.3%

Enter reported inhibition observed with Amyloid-beta precursor protein (Homo sapiens, UniProt P05067) for CC1=NN(c2cc(C)ccc2C)C(=O)C1
7.4%

Query for Amyloid-beta precursor protein (Homo sapiens, UniProt P05067): what inhibition does the record show for CC1=NN(c2cccc(N3CCCC3)c2)C(=O)C1 ?
47%

API: value(readout=inhibition, system=Amyloid-beta precursor protein (Homo sapiens, UniProt P05067)) for record COc1cccc(N2N=C(C)CC2=O)c1
39.7%

Param readout = inhibition; param system = Amyloid-beta precursor protein (Homo sapiens, UniProt P05067); param query = CCc1ccccc1N1N=C(C)CC1=O ; response: value
26.3%

# value lookup — system Amyloid-beta precursor protein (Homo sapiens, UniProt P05067), readout inhibition, item CC1=NN(c2ccc3ccccc3c2)C(=O)C1
56.2%
